biological target: human cloned 5-HT6 receptors (Homo sapiens, UniProt P50406)
Sequence (P50406 whole entry): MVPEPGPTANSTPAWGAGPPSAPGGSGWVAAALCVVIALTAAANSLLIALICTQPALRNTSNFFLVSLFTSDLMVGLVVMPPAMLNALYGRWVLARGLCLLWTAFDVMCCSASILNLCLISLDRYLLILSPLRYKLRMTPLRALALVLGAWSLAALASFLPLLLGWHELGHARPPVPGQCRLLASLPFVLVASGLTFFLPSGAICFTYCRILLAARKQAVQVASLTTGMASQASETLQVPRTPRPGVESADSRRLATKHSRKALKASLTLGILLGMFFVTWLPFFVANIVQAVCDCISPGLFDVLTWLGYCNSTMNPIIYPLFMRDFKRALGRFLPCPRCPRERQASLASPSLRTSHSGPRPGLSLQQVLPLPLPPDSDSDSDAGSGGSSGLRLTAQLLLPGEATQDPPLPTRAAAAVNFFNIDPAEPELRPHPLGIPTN
Counter-ions that a name gives are not always drawn.
quantityKind: Ki (nM)

molecule: O=S(=O)(c1ccccc1)n1ncc2c(OC[C@@H]3CCCN3)cccc21 [Example 15, trifluoroacetic acid salt]
Ki / nM: 7

a. Nc1ccc(S(=O)(=O)n2ncc3c(OC[C@@H]4CCCN4)cccc32)cc1 [Example 20]
b. O=S(=O)(c1cccc2cccnc12)n1ncc2c(OC[C@@H]3CCCN3)cccc21 [Example 16]
// which entry reports the smaller Ki, a or b ? # reply format: chosen label
a
(a: 9 nM, b: 85 nM)

I. O=S(=O)(c1ccccc1)n1ccc2c(OC[C@H]3CCCN3)cccc21 [Example 11, hydrochloride]
II. O=S(=O)(c1cccc(F)c1)n1ccc2c(OC[C@@H]3CCCN3)cccc21 [Example 6]
Which entry has a larger number for Ki, I or II ? Respond using the label that marks the chosen record.
I
(I: 106 nM, II: 8 nM)

----------
Consider the following molecules and their measured melting point readings.
Where a name gives a salt, the structure may show the parent alone.

Which measured melting point value corresponds to O=S(=O)(c1cccc2cccnc12)n1ncc2c(OC[C@@H]3CCCN3)cccc21 [Example 16] ?
217 to 218 °C

State the recorded melting point for this entry: O=S(=O)(c1ccccc1F)n1ccc2c(OC[C@@H]3CCCN3)cccc21 (as salt: hydrochloride) [Example 5]
153 to 155 °C

Entry O=S(=O)(c1ccc(Cl)s1)n1ccc2c(OC[C@@H]3CCCN3)cccc21 (as salt: hydrochloride) [Example 4] : reported melting point = ?
204 to 206 °C

Look up melting point for this molecule: O=S(=O)(c1ccccc1Cl)n1ncc2c(OC[C@@H]3CCCN3)cccc21 (as salt: hydrochloride) [Example 17]
> 255 °C (dec.)

Which melting point is listed for O=S(=O)(c1ccc(F)cc1)n1ccc2c(OC[C@@H]3CCCN3)cccc21 (as salt: hydrochloride) [Example 7] ?
258 °C (dec.)

----------
Counter-ions that a name gives are not always drawn.
Recorded melting point, one value per entry.

Sample answers from the record:
compound: O=S(=O)(c1cccc(F)c1)n1ccc2c(OC[C@@H]3CCCN3)cccc21 (as salt: hydrochloride)
melting point: 160 to 162 °C

compound: Nc1ccc(S(=O)(=O)n2ncc3c(OC[C@@H]4CCCN4)cccc32)cc1 (as salt: hydrochloride)
melting point: 150 to 155 °C

compound: COc1ccc(S(=O)(=O)n2ccc3c(OC[C@@H]4CCCN4)cccc32)cc1OC (as salt: hydrochloride)
melting point: 115 °C (dec.)

Next item in the queue.
Reported melting point, compound O=S(=O)(c1ccccc1F)n1ncc2c(OC[C@@H]3CCCN3)cccc21 (as salt: hydrochloride) : ____
145 to 148 °C

----------
Target or system human cloned 5-HT6 receptors (Homo sapiens, UniProt P50406): recorded Ki listed per item.
Where a name gives a salt, the structure may show the parent alone.
quantityKind: Ki (nM)

# count of solved cases: 2
molecule: O=S(=O)(c1ccccc1Cl)n1ncc2c(OC[C@@H]3CCCN3)cccc21
target: human cloned 5-HT6 receptors (Homo sapiens, UniProt P50406)
readoutUnit: nM
Ki: 5
//
molecule: O=S(=O)(c1ccc(Cl)s1)n1ncc2c(OC[C@@H]3CCCN3)cccc21
target: human cloned 5-HT6 receptors (Homo sapiens, UniProt P50406)
readoutUnit: nM
Ki: 5

a. COc1ccc(S(=O)(=O)n2ccc3c(OC[C@@H]4CCCN4)cccc32)cc1OC
b. O=S(=O)(c1ccccc1)n1ccc2c(OC[C@@H]3CCCN3)cccc21 [Example 3, hydrochloride]
Endpoint returns the identifier whose Ki is numerically larger, either a or b . // caller expects the label of the chosen entry
a
(a: 95 nM, b: 6 nM)

Where do the numbers come from? From patent US20050065185A1.
